Biological target: T1, CD123-Fc recombinant protein (human, UniProt P26951 19-305)
T1 construct: Soluble staining reagent; also called CD123-Fc protein; not shown: Fc part
T1 sequence (looked up): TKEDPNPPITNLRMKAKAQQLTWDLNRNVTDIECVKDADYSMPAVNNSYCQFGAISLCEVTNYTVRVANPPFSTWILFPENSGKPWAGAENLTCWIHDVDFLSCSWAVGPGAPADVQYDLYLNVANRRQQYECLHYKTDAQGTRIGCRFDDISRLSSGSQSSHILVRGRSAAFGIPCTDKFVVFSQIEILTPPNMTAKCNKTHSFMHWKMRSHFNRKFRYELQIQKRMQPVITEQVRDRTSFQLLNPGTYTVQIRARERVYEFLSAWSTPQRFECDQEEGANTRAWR
Assay: FACS staining of CAR-T cells with CD123-Fc recombinant protein (FIG. 28)

binder	binding result
anti-CD123 scFv-C33 (scFv, also called C33 scFv) scFv: DIRLTQSPSSLSASVGDTITITCRASQDISSWIAWYQQKPGTAPRLLIYAASSLQSGVPSRFSGSGSGTDFTLTINSLHPEDFATYYCQQGSTFPLAFGGGTKVEIKGGGGSGGGGSGGGGSQVQLVQSGAEVKKPGSSVKVSCKASGGTFSSYAISWVRQAPGQGLEWMGGIIPIFGTANYAQKFQGRVTITADESTSTAYMELSSLRSEDTAVYYCARGLDNWNDVGWFDPWGQGTLVTVSS	binds
anti-CD123 scFv-C14 (scFv, also called C14 scFv) scFv: DIRMTQSPSSLSASVGDRVTITCQASQDITNYLNWYHQKPGKAPKLLIYDASNLETGVPSRFSGGGSGTDFTFTISSLQSEDIGTYYCQQYDDLPLTFGGGTKVEIKGGGGSGGGGSGGGGSQVQLQESGPGLVKPSETLSLTCTVSGGSISSSSHYWGWIRQPPGKGLEWIGSIYYSGSTYYNPSLKSRVTISVDTSKNQFSLKLSSVTAADTAVYYCARRVWVWPTYGMDVWGQGTTVTVSS	binds
anti-CD123 scFv-C15 (scFv, also called C15 scFv) scFv: DIQLTQSPSTLSASVGDRVTISCRASQSISSWLAWYQHKPGKAPKLLIYKTSALEDGVPSRFSGSGSGTEFTLTISSLQPDDFATYFCLHYGSYTFGQGTKVDIKGGGGSGGGGSGGGGSEVQLVESGGGLVNPGGSLRLSCEASGFTFSDYYISWIRQAPGKGLEWISYISGSSTYTDFADSVKGRFTISRDNAKNTVFLQMNSLRAEDTAVYYCARDRRGRFDPWGQGTLVTVSS	binds
